Would you kindly list molar entropy for each of these compounds?
condition notes: 50 K; 101.33 kPa; Crystal; relaxation calorimetry
Answers are plain numbers, in J/K/mol.

O[C@H]1[C@H](O)[C@@H](O)[C@H](O)[C@@H](O)[C@H]1O [cis-1,2,3,5-trans-4,6-cyclohexanehexol]: 19.96
OC[C@H](O)C(O)[C@@H](O)CO [L-(-)-arabitol]: 20.19
OC[C@@H](O)[C@@H](O)[C@H](O)[C@H](O)CO: 22.8
OC[C@@H](O)C(O)[C@H](O)CO: 19.95
OC[C@@H](O)[C@H](O)[C@@H](O)CO: 18.47

// below: molar entropy requested for another compound
Summary for this compound, OC[C@@H](O)[C@@H](O)CO : molar entropy is 17.96

Sourced from the NIST ThermoML archive (doi:10.1016/j.jct.2017.08.004)
